FYI, the data here is from paper PMC10397247.

- target of assay: T1, 4H1513-AA
- T1 chain: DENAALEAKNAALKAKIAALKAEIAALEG
- measurement protocol: two-hybrid library CCmax;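 also: natural log of median RNA to DNA barcode read ratio; higher means stronger binding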
- experimental conditions: mean of both orientations
Each entry below carries its reported interaction score.
// no unit, no text: just the number

                                     binder  value_measured
0  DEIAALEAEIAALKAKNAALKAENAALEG [4H123-AA]            -1.7

Task item: Name the reported interaction score value associated with the binder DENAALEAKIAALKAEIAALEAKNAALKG [4H1352-AA]
Reply: -0.469

Task item: Next entry: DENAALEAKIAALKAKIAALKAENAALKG [4H1388-AA]
Reply: -0.0302
